# runDescription: Selectivity index, ratio of CC50 for african green monkey Vero cells to EC50 for Vaccinia virus Elstree-Lister
# Format: toxicity, cell-based
# condition: read-out: Ratio CC50/EC50
property: selectivity ratio

Request: Looking for the measured selectivity ratio of O=[N+]([O-])c1ccc(-c2nc3cc(Cl)c(Cl)cc3[nH]2)cc1 , can you help?
Result: ≥ 1000

* * *

CC50 at 96 h by entry:
# runDescription: Cytotoxicity against human MT4 cells after 96 hrs by MTT assay
# Assay type: cell-based
# condition: MT4 cells
All answers are understood in µM, so give the number only.

Examples with answers:
| itemSmiles | displayUnit | numericResult |
| --- | --- | --- |
| COc1ccc(-c2nc3cc(C(F)(F)F)ccc3[nH]2)c(OC)c1OC | µM | 93 |
| O=C(CN1CCCC1)Nc1ccc(-c2nc3cc(C(F)(F)F)ccc3[nH]2)cc1 | µM | 18 |
| O=[N+]([O-])c1ccc(-c2nc3cc(Cl)c(Cl)cc3[nH]2)cc1 | µM | 17 |

Request: Looking for the measured CC50 at 96 h of Nc1ccc(-c2nc3cc(C(F)(F)F)ccc3n2C23CC4CC(CC(C4)C2)C3)cc1 , can you help?
Result: 19

Request: Do the same for COc1ccc(-c2nc3cc(C(F)(F)F)ccc3[nH]2)c(N)c1 please
Result: 5

Request: Do the same for COc1ccc(-c2nc3cc(Cl)c(Cl)cc3[nH]2)c(N)c1 please
Result: 3

Request: Do the same for O=C(CN1CCSCC1)Nc1ccc(-c2nc3cc(C(F)(F)F)ccc3[nH]2)cc1 please
Result: 6

Request: Do the same for CCN(CC)CC(=O)Nc1ccc(-c2nc3cc(C(F)(F)F)ccc3n2C)cc1 please
Result: 9

Request: Do the same for O=C(CN1CCN(c2ccccc2)CC1)Nc1ccc(-c2nc3cc(C(F)(F)F)ccc3[nH]2)cc1 please
Result: 0.9

Request: Do the same for O=C(CN1CCCCC1)Nc1ccc(-c2nc3ccccc3[nH]2)cc1 please
Result: 31

* * *

CC50 by entry:
# runDescription: Cytotoxicity against MDBK cells after 48 to 96 hrs by MTT assay
# Type: cell-based, Bos taurus
# condition: cattle, MDBK cells
All answers are understood in µM, so give the number only.

Examples with answers:
| itemSmiles | numericResult |
| --- | --- |
| CCN(CC)CC(=O)Nc1ccc(-c2nc3cc(C(F)(F)F)ccc3[nH]2)cc1 | 13 |
| O=C(CN1CCN(c2ccccc2)CC1)Nc1ccc(-c2nc3cc(C(F)(F)F)ccc3[nH]2)cc1 | 32 |
| Cn1c(-c2ccc(NC(=O)CN3CCN(c4ccccc4)CC3)cc2)nc2cc(C(F)(F)F)ccc21 | 1.4 |
| Oc1ccc(-c2nc3cc(Cl)c(Cl)cc3[nH]2)cc1 | 11 |
| COc1ccc(-c2nc3cc(Cl)c(Cl)cc3[nH]2)c([N+](=O)[O-])c1 | 28 |
| O=C(CN1CCCC1)Nc1ccc(-c2nc3cc(C(F)(F)F)ccc3[nH]2)cc1 | 15 |

Now consider the entry below.
Request: Looking for the measured CC50 of CN1CCN(CC(=O)Nc2ccc(-c3nc4cc(Cl)c(Cl)cc4[nH]3)cc2)CC1 , can you help?
Result: 90

* * *

# runDescription: Cytotoxicity against BHK cells after 48 to 96 hrs by MTT assay
# Format: cell-based, Mesocricetus auratus
# condition: hamster
Mark each entry fulfilled if its CC50 sits below 40 µM, and not fulfilled for all others.

Request: # check: CC50 < 40 µM for O=C(CN1CCCCC1)Nc1ccc(-c2nc3cc(C(F)(F)F)ccc3[nH]2)cc1
Result: fulfilled

Request: Do the same for COc1ccc(-c2nc3cc(C(C)=O)ccc3[nH]2)c(OC)c1OC please
Result: not fulfilled

Request: Do the same for Fc1cccc(F)c1-c1nc2cc(C(F)(F)F)ccc2[nH]1 please
Result: not fulfilled

Request: Do the same for CC(=O)Nc1ccc(-c2nc3cc(C(F)(F)F)ccc3[nH]2)cc1 please
Result: not fulfilled

Request: Do the same for O=C(CN1CCOCC1)Nc1ccc(-c2nc3cc(Cl)c(Cl)cc3[nH]2)cc1 please
Result: not fulfilled

Request: Do the same for CCC(=O)Nc1ccc(-c2nc3cc(C(F)(F)F)ccc3[nH]2)cc1 please
Result: not fulfilled

Request: Do the same for Oc1ccc(-c2nc3cc(Cl)c(Cl)cc3[nH]2)cc1 please
Result: fulfilled

Request: Do the same for Cn1c(-c2ccc([N+](=O)[O-])cc2)nc2cc(C(F)(F)F)ccc21 please
Result: not fulfilled

Request: Do the same for O=[N+]([O-])c1ccc(-c2nc3cc(Cl)c(Cl)cc3[nH]2)cc1 please
Result: not fulfilled

Request: Do the same for O=C(CN1CCCC1)Nc1ccc(-c2nc3ccccc3[nH]2)cc1 please
Result: not fulfilled

Request: Do the same for Oc1ccc(-c2nc3cc(C(F)(F)F)ccc3[nH]2)cc1 please
Result: not fulfilled

* * *

# runDescription: Cytotoxicity against MDBK cells after 48 to 96 hrs by MTT assay
# Format: cell-based, Bos taurus
# condition: cattle, MDBK cells
CC50 by entry:
All answers are understood in µM, so give the number only.

Request: Looking for the measured CC50 of CCC(=O)Nc1ccc(-c2nc3cc(C(F)(F)F)ccc3n2C2CCCCC2)cc1 , can you help?
Result: 18

Request: Do the same for O=C(CCl)Nc1ccc(-c2nc3cc(C(F)(F)F)ccc3[nH]2)cc1 please
Result: 17

Request: Do the same for Nc1ccc(-c2nc3cc(C(F)(F)F)ccc3[nH]2)cc1 please
Result: 82

Request: Do the same for Nc1ccc(-c2nc3cc(Cl)c(Cl)cc3[nH]2)cc1 please
Result: 7.5

Request: Do the same for COc1ccc(-c2nc3cc(Cl)c(Cl)cc3[nH]2)cc1 please
Result: 2.5

* * *

# runDescription: Cytotoxicity against human MT4 cells after 96 hrs by MTT assay
# Assay type: cell-based
# condition: MT4 cells
property: CC50 at 96 h (µM)
All answers are understood in µM, so give the number only.

| itemSmiles | numericResult |
| --- | --- |
| COc1cccc(-c2nc3cc(C(F)(F)F)ccc3[nH]2)c1 | 19 |

Request: Looking for the measured CC50 at 96 h of Cn1c(-c2ccc(N)cc2)nc2cc(C(F)(F)F)ccc21 , can you help?
Result: 20

Request: Do the same for O=C(CN1CCCCC1)Nc1ccc(-c2nc3cc(C(F)(F)F)ccc3[nH]2)cc1 please
Result: 6

Request: Do the same for COc1ccc(-c2nc3cc(C(F)(F)F)ccc3[nH]2)cc1 please
Result: 2

Request: Do the same for CCC(=O)Nc1ccc(-c2nc3ccccc3[nH]2)cc1 please
Result: 35

* * *

pEC50 by entry:
# Tested on: Coxsackievirus B2
# runDescription: Antiviral activity against Human coxsackievirus B2 Ohio-1 infected in african green monkey Vero cells after 3 days by plaque reduction assay
# Format: functional, organism-based, Coxsackievirus B2 (strain Ohio-1)
# condition: Enterovirus B, Vero, 72 h
By convention, pEC50 is the negative base-10 log of a molar concentration.

| itemSmiles | pEC50 |
| --- | --- |
| CC(=O)Nc1ccc(-c2nc3cc(C(F)(F)F)ccc3[nH]2)cc1 | 5.52 |
| Cn1c(-c2ccc(N)cc2)nc2cc(C(F)(F)F)ccc21 | 4.85 |
| CCC(=O)Nc1ccc(-c2nc3cc(C(F)(F)F)ccc3n2C2CCCCC2)cc1 | 5.15 |
| COc1cc(-c2nc3cc(C(F)(F)F)ccc3[nH]2)cc(OC)c1OC | 4.96 |
| Cn1c(-c2ccc(NC(=O)CN3CCSCC3)cc2)nc2cc(C(F)(F)F)ccc21 | 4.66 |

Now consider the entry below.
Request: Looking for the measured pEC50 of Cn1c(-c2ccc(NC(=O)CN3CCCC3)cc2)nc2cc(C(F)(F)F)ccc21 , can you help?
Result: 4.89

* * *

# Test system: Coxsackievirus B2
# runDescription: Antiviral activity against Human coxsackievirus B2 Ohio-1 infected in african green monkey Vero cells after 3 days by plaque reduction assay
# Format: functional, organism-based, Coxsackievirus B2 (strain Ohio-1)
# condition: Enterovirus B, Vero, 72 h
pEC50: −log10 of the molar value.
pEC50 by entry:

Examples with answers:
| compound | pEC50 |
| --- | --- |
| CC(=O)Nc1ccc(-c2nc3cc(C(F)(F)F)ccc3n2C)cc1 | 5.60 |
| O=c1cnn([C@@H]2O[C@H](CO)[C@@H](O)[C@H]2O)c(=O)[nH]1 (stereo in doubt; form 2) | < 4.70 |
| COc1ccc(-c2nc3cc(Cl)c(Cl)cc3[nH]2)c(N)c1 | < 4.12 |
| CCN(CC)CC(=O)Nc1ccc(-c2nc3cc(C(F)(F)F)ccc3n2C)cc1 | 4.68 |
| O=C(CN1CCCC1)Nc1ccc(-c2nc3cc(C(F)(F)F)ccc3[nH]2)cc1 | < 4.00 |

Request: Looking for the measured pEC50 of COc1ccc(-c2nc3cc(C(C)=O)ccc3[nH]2)c(OC)c1 , can you help?
Result: < 4.00

Request: Do the same for O=C(CN1CCOCC1)Nc1ccc(-c2nc3ccccc3[nH]2)cc1 please
Result: < 4.00

Request: Do the same for Cn1c(-c2ccc([N+](=O)[O-])cc2)nc2cc(C(F)(F)F)ccc21 please
Result: < 4.00

Request: Do the same for CCN(CC)CC(=O)Nc1ccc(-c2nc3cc(C(F)(F)F)ccc3[nH]2)cc1 please
Result: < 4.62

Request: Do the same for O=C(CN1CCCC1)Nc1ccc(-c2nc3ccccc3[nH]2)cc1 please
Result: 4.96
